targetEntity: canine TRPM8 (Canis lupus familiaris, UniProt Q1A7N1)
Construct: expressed in transfected cells
Sequence (Q1A7N1 1-1104): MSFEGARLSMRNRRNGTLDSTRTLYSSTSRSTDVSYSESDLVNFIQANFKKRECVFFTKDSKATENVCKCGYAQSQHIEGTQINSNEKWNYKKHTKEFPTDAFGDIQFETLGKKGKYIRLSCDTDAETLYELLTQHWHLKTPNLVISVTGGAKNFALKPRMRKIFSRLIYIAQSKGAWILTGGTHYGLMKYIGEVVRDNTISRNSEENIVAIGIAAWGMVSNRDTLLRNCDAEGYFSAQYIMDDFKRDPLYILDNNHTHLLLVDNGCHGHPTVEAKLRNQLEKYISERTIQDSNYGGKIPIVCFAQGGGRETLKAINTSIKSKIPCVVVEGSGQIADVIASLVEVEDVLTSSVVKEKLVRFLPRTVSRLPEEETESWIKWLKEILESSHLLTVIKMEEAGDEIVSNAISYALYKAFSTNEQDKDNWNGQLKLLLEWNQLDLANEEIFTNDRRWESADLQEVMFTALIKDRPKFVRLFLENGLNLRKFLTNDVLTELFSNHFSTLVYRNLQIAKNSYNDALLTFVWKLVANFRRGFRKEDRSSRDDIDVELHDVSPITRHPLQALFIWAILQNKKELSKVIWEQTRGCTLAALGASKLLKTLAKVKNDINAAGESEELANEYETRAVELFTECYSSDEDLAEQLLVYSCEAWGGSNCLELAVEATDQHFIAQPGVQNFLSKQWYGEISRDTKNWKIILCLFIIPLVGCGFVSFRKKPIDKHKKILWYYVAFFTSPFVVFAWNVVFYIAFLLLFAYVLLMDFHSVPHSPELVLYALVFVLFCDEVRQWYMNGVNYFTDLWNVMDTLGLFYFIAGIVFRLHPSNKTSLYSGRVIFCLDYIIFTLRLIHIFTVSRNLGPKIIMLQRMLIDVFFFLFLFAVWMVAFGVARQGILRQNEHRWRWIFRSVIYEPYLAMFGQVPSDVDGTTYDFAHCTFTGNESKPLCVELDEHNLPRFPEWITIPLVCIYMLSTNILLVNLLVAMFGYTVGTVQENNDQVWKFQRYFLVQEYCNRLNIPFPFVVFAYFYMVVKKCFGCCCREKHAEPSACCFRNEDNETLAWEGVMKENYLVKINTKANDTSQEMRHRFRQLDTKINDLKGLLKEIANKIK
method: In vitro canine TRPM8 functional assay (Ca2+-sensitive dye, icilin activation; Table 4 TRPM8 Screening)
Format: cell-based
statedConditions: compound at 1 μM; HEK293 cells expressing canine TRPM8, icilin activation
// values below are reported % I (1 μM)
Just the number please, in %, no unit attached.

Looking for the measured % I (1 μM) of CCOP(=O)(OCC)C(Cc1cccc(OC(F)(F)F)c1)c1sc2ccccc2c1C (stereo not shown) , can you help?
100

Quick one: % I (1 μM) for CCOP(=O)(OCC)C(Cc1ccccc1OC(F)(F)F)c1sc2ccccc2c1C (stereo not shown) ?
100

Find the recorded % I (1 μM) belonging to CCOP(=O)(OCC)C(Cc1ccc2ccccc2c1)c1sc2ccccc2c1C (stereo not shown) and report it.
99

I would be grateful if you could share the reported % I (1 μM) for CCOP(=O)(OCC)C(Cc1ccc(C(F)(F)F)cc1)c1cc2ccccc2s1 (stereo not shown) .
96

// lookup % I (1 μM) for CCOP(=O)(OCC)C(Cc1ccc(Br)cc1)c1cc2ccccc2s1 (stereo not shown)
82

Can you share its % I (1 μM)? I mean this molecule: CCOP(=O)(OCC)C(Cc1cc(C(F)(F)F)cc(Cl)c1F)c1sc2ccccc2c1C (stereo not shown)
100

Data request, read-out % I (1 μM), for CCC(C)P(=O)(C(C)CC)C(Cc1ccc(F)c(F)c1)c1sc2ccccc2c1Br (stereo not shown)
96

###

targetEntity: canine TRPM8 (Canis lupus familiaris)
Construct: expressed in transfected cells
method: In vitro canine TRPM8 functional assay (Ca2+-sensitive dye, icilin activation; Table 4 TRPM8 Screening)
Assay type: cell-based
statedConditions: compound at 1 μM; HEK293 cells expressing canine TRPM8, icilin activation
Listed next: entries and their corresponding % I (1 μM).
Give a bare numeral; the unit % is implied.

Which % I (1 μM) value belongs to CCOP(=O)(OCC)C(Cc1cccc(Cl)c1Cl)c1cc2ccccc2s1 (centres unmarked) [Cpd 100] ?
82

Reported % I (1 μM) for CCOP(=O)(OCC)C(Cc1ccc(F)cc1Cl)c1sc2ccccc2c1C (centres unmarked) [Cpd 27] : what is it?
99

Which % I (1 μM) is listed for CCOP(=O)(OCC)C(Cc1ccc(F)c(F)c1)c1cc2ccccc2o1 (centres unmarked) [Cpd 265] ?
95

Query (compound): CCOP(=O)(OCC)C(Cc1ccc(F)c(F)c1)c1oc2cccc(F)c2c1Br (racemic) [Cpd 206] ; field requested: % I (1 μM)
100

Name the recorded % I (1 μM) for CCOP(=O)(OCC)C(Cc1cccc(C(F)(F)F)c1F)c1sc2ccccc2c1C (centres unmarked) [Cpd 37] .
100

###

targetEntity: canine TRPM8 (Canis lupus familiaris, UniProt Q1A7N1)
Construct: expressed in transfected cells
method: In vitro canine TRPM8 functional assay (Ca2+-sensitive dye, icilin activation; Table 4 TRPM8 Screening)
Type: cell-based
statedConditions: compound at 1 μM; HEK293 cells expressing canine TRPM8, icilin activation
% I (1 μM) overview
Respond with the bare value in %.

Worked examples, 10 compounds total:
CC(C)OP(=O)(OC(C)C)C(Cc1ccccc1F)c1sc2ccccc2c1Br (stereo not shown) ... 100
CCOP(=O)(OCC)C(Cc1ccccc1C(F)(F)F)c1sc2ccccc2c1C (stereo not shown) ... 99
CCOP(=O)(OCC)C(Cc1ccccc1C(F)(F)F)c1cc2ccccc2s1 (stereo not shown) ... 86
CCCP(=O)(CCC)C(OCc1ccc(F)c(F)c1)c1sc2ccccc2c1C (stereo not shown) ... 100
CCOP(=O)(OCC)C(Cc1cccc(F)c1F)c1sc2ccccc2c1C (stereo not shown) ... 100
CCOP(=O)(Cc1cc2ccccc2s1)OCc1ccccc1Br (stereo not shown) ... 11
CCOP(=O)(OCC)C(Cc1c(Cl)cccc1Cl)c1sc2ccccc2c1C (stereo not shown) ... 100
CCOP(=O)(OCC)C(Cc1cccc(C(F)(F)F)c1)c1cc2ccccc2s1 (stereo not shown) ... 100
Cc1c(C(Cc2ccc(F)c(F)c2)P(=O)(OCC(C)(C)C)OCC(C)(C)C)sc2ccccc12 (stereo not shown) ... 97
CCOP(=O)(Cc1cc2ccccc2s1)OCc1ccccc1Cl (racemic) ... 48

Endpoint output: % I (1 μM) of CCOP(=O)(OCC)C(Cc1ccc(F)cc1Cl)c1cc2ccccc2s1 (stereo not shown) . Value?
79

Any idea what its % I (1 μM) is? The compound is CC(C)OP(=O)(OC(C)C)C(Cc1ccccc1F)c1sc2cccc(Br)c2c1Br (stereo not shown)
98

% I (1 μM) for CC(C)OP(=O)(OC(C)C)C(Cc1ccc(F)c(F)c1)c1sc2ccccc2c1C1CCCC1 (stereo not shown) ?
99

So what does the record say about % I (1 μM) for CCOP(=O)(OCC)C(Cc1ccccc1)c1cc2ccccc2s1 (stereo not shown) ?
92

Item CCOP(=O)(OCC)C(Cc1ccc(C(F)(F)F)c(F)c1)c1cc2ccccc2s1 (stereo not shown) has what recorded % I (1 μM)?
100

Reported % I (1 μM) for CCOP(=O)(OCC)C(Cc1cccc(Cl)c1Cl)c1sc2ccccc2c1C (stereo not shown) : what is it?
100

Report % I (1 μM) for CCOP(=O)(OCC)C(Cc1ccccc1C)c1sc2ccccc2c1C (stereo not shown) please.
100

Which value of % I (1 μM) has been reported for CCOP(=O)(OCC)C(Cc1c(Cl)ccc(C)c1F)c1sc2ccccc2c1C (stereo not shown) in the records?
100

###

targetEntity: canine TRPM8 (Canis lupus familiaris)
Construct: expressed in transfected cells
method: In vitro canine TRPM8 functional assay (Ca2+-sensitive dye, icilin activation; Table 4 TRPM8 Screening)
Type: cell-based
statedConditions: compound at 1 μM; HEK293 cells expressing canine TRPM8, icilin activation
recordedEndpoint: % I (1 μM) (%)
// units = %; emit number, no label

CCOP(=O)(OCC)C(Cc1c(Cl)cccc1Cl)c1cc2ccccc2s1 (centres unmarked) ... 89

Form field: % I (1 μM) recorded for CCOP(=O)(OCC)C(Cc1ccccc1C)c1cc2ccccc2s1 (centres unmarked) with canine TRPM8 (Canis lupus familiaris) (enter value)
91

Param readout= % I (1 μM); system= canine TRPM8 (Canis lupus familiaris); entry= CCOP(=O)(OCC)C(Cc1cccc(Cl)c1F)c1sc2ccccc2c1C (centres unmarked) ; returns value.
100

What % I (1 μM) appears in the records for this compound with canine TRPM8 (Canis lupus familiaris)? CCOP(=O)(OCC)C(Cc1cc(C(F)(F)F)ccc1C(F)(F)F)c1sc2ccccc2c1C (centres unmarked)
25

Provide value of % I (1 μM) for this record tested with canine TRPM8 (Canis lupus familiaris): CCOP(=O)(OCC)C(Cc1ccc(F)c(F)c1)c1sc2c(C(F)(F)F)cccc2c1C (centres unmarked)
64

###

targetEntity: canine TRPM8 (Canis lupus familiaris)
Construct: expressed in transfected cells
method: In vitro canine TRPM8 functional assay (Ca2+-sensitive dye, icilin activation; Table 4 TRPM8 Screening)
Assay type: cell-based
statedConditions: compound at 5 μM; HEK293 cells expressing canine TRPM8, icilin activation
recordedEndpoint: % I (5 μM) (%)
Could you give me the number in %? Just the number is fine.

Past entries and their recorded results:
CCOP(=O)(OCC)C(Cc1ccc(Br)cc1)c1cc2ccccc2s1 (centres unmarked) ... 99
CCOP(=O)(OCC)C(Cc1ccccc1Cl)c1cc2ccccc2s1 (centres unmarked) ... 100
CCOP(=O)(Cc1cc2ccccc2s1)OCc1ccc(F)cc1 (centres unmarked) ... 99
CCOP(=O)(OCC)C(Cc1ccccc1C)c1cc2ccccc2s1 (centres unmarked) ... 100
CCOP(=O)(Cc1cc2ccccc2s1)OCc1ccccc1Cl (racemic) ... 100

// lookup % I (5 μM) for CCOP(=O)(Cc1cc2ccccc2s1)OCc1ccccc1Br (centres unmarked)
96

Please look up its % I (5 μM): CCOP(=O)(OCC)C(Cc1ccccc1F)c1cc2ccccc2s1 (centres unmarked)
100

Which % I (5 μM) is reported for this molecule? CCOP(=O)(OCC)C(Cc1c(Cl)cccc1Cl)c1cc2ccccc2s1 (centres unmarked)
100

###

Items are presented alongside their recorded % I (0.5 μM).
targetEntity: canine TRPM8 (Canis lupus familiaris)
Construct: expressed in transfected cells
method: In vitro canine TRPM8 functional assay (Ca2+-sensitive dye, icilin activation; Table 4 TRPM8 Screening)
Format: cell-based
statedConditions: compound at 0.5 μM; HEK293 cells expressing canine TRPM8, icilin activation
Kindly provide the numeric value in % only, without the unit symbol.

Some entries whose results are on file:
CCOP(=O)(OCC)C(Cc1cc(O)cc(O)c1)c1sc2ccccc2c1Br (stereo not shown) [Cpd 322] ... 45
CC(C)OP(=O)(OC(C)C)[C@H](Cc1ccc(F)c(C(F)(F)F)c1)c1sc2ccccc2c1Br [Cpd 243] ... 64
CC(C)OP(=O)(OC(C)C)C(Cc1c(F)c(F)c(O)c(F)c1F)c1sc2ccccc2c1Br (racemic) [Cpd 229] ... 95
CC(C)OP(=O)(OC(C)C)C(Cc1cc(O)c(Cl)cc1F)c1sc2ccccc2c1Br (racemic) [Cpd 232] ... 99

Please look up its % I (0.5 μM): CCOP(=O)(OCC)C(Cc1ccccc1C(F)(F)F)c1sc2ccccc2c1Cl (racemic) [Cpd 279]
97

What value of % I (0.5 μM) has been reported for the following molecule? CC(=O)OCCOP(=O)(OCCOC(C)=O)C(Cc1ccc(F)c(F)c1)c1sc2ccccc2c1Br (racemic) [Cpd 213]
100

Bench note: what % I (0.5 μM) did CC(C)OP(=O)(OC(C)C)C(Cc1cc(C(F)(F)F)cc(C(F)(F)F)c1)c1sc2ccccc2c1Cl (racemic) [Cpd 171] show?
95

So what's the measured % I (0.5 μM) for this one? CC(C)OP(=O)(OC(C)C)C(Cc1cc(C(F)(F)F)ccc1Cl)c1sc2ccccc2c1Cl (stereo not shown) [Cpd 178]
79

# get_value(readout='% I (0.5 μM)', item= CCOP(=O)(OCC)C(Cc1ccc(F)c(OC)c1)c1sc2ccccc2c1Br (stereo not shown) [Cpd 156] )
98

I would be grateful if you could share the reported % I (0.5 μM) for CCOP(=O)(OCC)C(Cc1cc(C(F)(F)F)cc(C(F)(F)F)c1)c1sc2ccccc2c1Cl (racemic) [Cpd 282] .
100

Can you share its % I (0.5 μM)? I mean this molecule: CCOP(=O)(OCC)C(Cc1cc(OC)c(Cl)cc1F)c1sc2ccccc2c1Br (racemic) [Cpd 164]
94

// returns reported % I (0.5 μM) for input CCOP(=O)(OCC)C(Cc1c(F)c(F)c(OC)c(F)c1F)c1sc2ccccc2c1Br (racemic) [Cpd 160]
87
